experiment: in vitro; details: human, plasma, half-life of the peptide, 50% human plasma, initial KSL-W concentration between 33 and 72 μg/mL
Peptide text beside a SMILES is read from it.
ATTRIBUTE MEASURED: half-life
Answer format: value, then unit.

Data request: Would you mind telling me what half-life value was observed for CC(C)[C@H](NC(=O)[C@H](Cc1c[nH]c2ccccc12)NC(=O)[C@H](Cc1ccccc1)NC(=O)[C@@H](NC(=O)[C@@H](NC(=O)[C@H](CCCCN)NC(=O)[C@@H](N)CCCCN)C(C)C)C(C)C)C(=O)N[C@@H](CCCCN)C(=O)N[C@@H](Cc1ccccc1)C(=O)N[C@@H](CCCCN)C(N)=O [KSL-W] (H-KKVVFWVKFK-NH2; N-terminus and C-terminus assumed) ?
Data returned: 240 min
